Reported melting point values for a set of compounds

// worked examples, melting point included
compound | testReadout | result
CN(Cc1cc2c3c(c1)c(=O)c(C(=O)NCc1ccc(Cl)cc1)cn3CC(=O)N2C)C[C@@H](O)c1cc2ccccc2o1 | melting point | 86 to 87 °C
COC(=O)C1=C(C)NC(=S)N(C(=O)Cc2ccccc2)C1c1cccc([N+](=O)[O-])c1 (centres undefined) | melting point | 155 to 156 °C
Cc1cc(CCCOc2c(C)cc(-c3noc(C(Cl)(Cl)Cl)n3)cc2C)on1 | melting point | 77 to 77.5 °C
CC(C)n1cc(-c2nc(C#N)c(N)nc2-c2ccccc2)ccc1=O | melting point | 204 °C
Cc1cc([N+](=O)[O-])ccc1NCCCn1ccnc1 | melting point | 163 °C

Query: So what's the measured melting point for this one? Cc1cccc(C(N)=O)c1SSc1c(C)cccc1C(N)=O
Result: 189 to 190 °C

Query: // query melting point value for entry CC(C)CNC(=O)C(C)NC(=O)C(C)NC(=O)C(C)NC(=O)CCCC(=O)O (centres undefined)
Result: 292 to 293 °C

Query: Look at this compound and give its reported melting point. CC(O)C(CO)(Cc1cc(C(C)(C)C)c(O)c(C(C)(C)C)c1)Cc1cc(C(C)(C)C)c(O)c(C(C)(C)C)c1 (centres undefined)
Result: 145 to 150 °C

Query: # melting point lookup, item O=C(O)CCC(=O)c1ccc2[nH]c3ncc(Cl)cc3c2c1
Result: 243 °C

----------
testReadout: melting point

Query: I am curious: what melting point value has been reported for CC(=O)N[C@@H](CO)C(=O)NCCO[N+](=O)[O-] ?
Result: 91 to 93 °C

Query: Reported melting point for COc1ccc(S(=O)(=O)Nc2cccnc2Nc2ccccc2OC)cc1 : what is it?
Result: 159 to 160 °C

Query: Fill blank: measured melting point of the compound COC(=O)Cc1c(Cl)nc(C)nc1Cl is ____.
Result: 67 to 68 °C

Query: Value lookup for melting point; key = CCCOCCOc1ccc(OCC(O)CNCCNc2cc(=O)n(C)c(=O)n2C)cc1 (stereo not given)
Result: 125 °C

Query: Return reported melting point; argument: CC(=O)Nc1nc(CCc2ccc(CC(=O)O)s2)cs1
Result: 172 to 174 °C

Query: Form field: reported melting point of O=C(Nc1noc2ccccc12)N1CCN(c2nc(-c3ccccc3)co2)CC1
Result: 171 to 172 °C

Query: Please report the recorded melting point for O=C(Nc1ccc2c(c1)OCC(=S)N2)C(=O)N1CCC(Cc2ccccc2)CC1 .
Result: 193 to 196 °C

Query: Look up melting point: Cc1cc(=O)c(C(=O)OC2CCCCC2)nn1-c1ccc(Cl)cc1
Result: 160 to 162 °C

Query: Quick one: melting point of COc1ccc(NC(=O)c2ccc3c(c2)C(C)(C)C(=O)N3)cc1 ?
Result: 169 to 171 °C

Query: Given the compound O=C(O)Cc1ccc(Cl)cc1OCCc1ccccc1 , what is its reported melting point?
Result: 102 to 104 °C

----------
Recorded melting point for the following compounds

Query: Can you look up the measured melting point of CCOC(=O)c1csc(-c2cccc([N+](=O)[O-])c2)n1 for me?
Result: 142 to 145 °C

----------
testReadout: melting point

Observe how each entry below is paired with its result.
compound | melting point
CC(C)(C)OC(=O)N1CCc2c(n(CCCc3ccccc3)c3cc(Cl)c(Cl)cc23)CC1 | 119 to 124 °C
CCCCOc1c(-c2cc(C=CC(=O)O)ccc2O)cc(C(C)(C)C)cc1C(C)(C)C | 92 to 94 °C

Field: next compound
Query: Need melting point of Fc1ccccc1N1CC2(CCNCC2)c2ccc(Cl)cc21 , thanks.
Result: 174 to 176 °C
